assay: Quantitative High-Throughput drug screen in 47 multiple myeloma cell lines against the NCATS MIPE library collection: Delta47_JCRB cell viability assay (AID 1918925; also: nearly all actives have a fitted effect of over 45% in size); settings: Delta47 myeloma viability, CellTiter-Glo ATP, 48 h; series mostly up to 45.8 µM
Results filed as inconclusive are left out. Activity calls are given as the source filed them. Calls follow the shape of the dose curve; as a rule, active = well fitted cell-killing curve with a large enough effect; inconclusive = small, poorly fitted or top-dose-only effect, or effect the other way; inactive = no such curve, though single readings can be large or run the other way.
The reply should name one outcome from Y for active, N for inactive

Worked set:
C[C@H](Cc1ccc(O)c(O)c1)[C@@H](C)Cc1ccc(O)c(O)c1; Y
O=C1c2c(O)cc(O)cc2OC(c2ccc(O)c(O)c2)C1O (centres undefined); N
CN(C)C(=O)[C@H](O)[C@H](Cc1ccccc1)NC(=O)c1cc2cc(Cl)ccc2[nH]1; Y
C[C@@H](c1ncncc1F)[C@](O)(Cn1cncn1)c1ccc(F)cc1F; N
Cc1nc(-c2ccc(OCC(C)C)c(C#N)c2)sc1C(=O)O; N

# fetch the recorded call for Cc1cc(C2CCCCC2)n(O)c(=O)c1 here Y

Which outcome was entered for the molecule O=C(NCC1CCCCN1)c1cc(OCC(F)(F)F)ccc1OCC(F)(F)F (centres undefined) in this test? Y

How was CC(C)[C@H](N)C(=O)OCCOCn1cnc2c(=O)[nH]c(N)nc21 classified in this test? N

Status in this test for COCCCN1CCC(NC(=O)c2cc(Cl)c(N)c3c2OCC3)CC1 ? Y

Where do the numbers come from? From PubChem BioAssay (NCATS).
